Test system: Saccharomyces cerevisiae
Assay: protein stability index of tFT-peptide fusion (C-terminal peptide) (PSI (0-1 scale)); higher = more stable (slower turnover)
Conditions: genetic background: wild type; temperature: 30 C
Would you kindly list protein stability index for each of these sequences?
One number for each entry.

Monomer Sequence | Test Value
VAHRENLAFPPR [PRO1 C-terminal 12 aa] | 0.707
VHTELLIYCHDE [ASR1 C-terminal 12 aa] | 0.68
SGSGVHVIKRVG [ESS1 C-terminal 12 aa] | 0.65

Hi there! I need protein stability index for each item below, if you can.
1. IYRRRKNKIFFW [RCK1 C-terminal 12 aa]
2. VMLNSVSISLNK [COG5 C-terminal 12 aa]
3. DWESNQAKWIYE [YNK1 C-terminal 12 aa]
4. NKEYWMKHKKPQ [PDE2 C-terminal 12 aa]
5. RIRQEIIKTKLL [EMP47 C-terminal 12 aa]
6. TLVADQEDDVIF [VMA8 C-terminal 12 aa]
7. PTWQIVEDIRNT [PMT3 C-terminal 12 aa]

1: 0.692; 2: 0.658; 3: 0.718; 4: 0.762; 5: 0.234; 6: 0.715; 7: 0.718
